The reader will find reported Km values listed item by item below.
# Substrate: O=C1CCC[C@H]2CCCC[C@H]12
# methodNotes: purified protein
# Assay type: biochemical, Streptomyces coelicolor
# conditionContext: co-substrate NADPH
Please give a number only; it is taken to be in mM.

Q. Note Km for the protein shown: actKR (actinorhodin type II polyketide ketoreductase) (Streptomyces coelicolor A3(2); V198A) (protein) MATQDSEVALVTGATSGIGLEIARRLGKEGLRVFVCARGEEGLRTTLKELREAGVEADGRTCDVRSVPEIEALVAAVVERYGPVDVLVNNAGRPGGGATAELADELWLDVVETNLTGVFRVTKQVLKAGGMLERGTGRIVNIASTGGKQGVVHAAPYSASKHGVVGFTKALGLELARTGITVNAVCPGFVETPMAASAREHYSDIWEVSTEEAFDRITARVPIGRYVQPSEVAEMVAYLIGPGAAAVTAQALNVCGGLGNY
A. 15.50

Q. Note Km for the protein shown: actKR (actinorhodin type II polyketide ketoreductase) (Streptomyces coelicolor A3(2); M194W) (protein) MATQDSEVALVTGATSGIGLEIARRLGKEGLRVFVCARGEEGLRTTLKELREAGVEADGRTCDVRSVPEIEALVAAVVERYGPVDVLVNNAGRPGGGATAELADELWLDVVETNLTGVFRVTKQVLKAGGMLERGTGRIVNIASTGGKQGVVHAAPYSASKHGVVGFTKALGLELARTGITVNAVCPGFVETPWAASVREHYSDIWEVSTEEAFDRITARVPIGRYVQPSEVAEMVAYLIGPGAAAVTAQALNVCGGLGNY
A. 3.22

Q. Note Km for the protein shown: actKR (actinorhodin type II polyketide ketoreductase) (Streptomyces coelicolor A3(2)) (protein) MATQDSEVALVTGATSGIGLEIARRLGKEGLRVFVCARGEEGLRTTLKELREAGVEADGRTCDVRSVPEIEALVAAVVERYGPVDVLVNNAGRPGGGATAELADELWLDVVETNLTGVFRVTKQVLKAGGMLERGTGRIVNIASTGGKQGVVHAAPYSASKHGVVGFTKALGLELARTGITVNAVCPGFVETPMAASVREHYSDIWEVSTEEAFDRITARVPIGRYVQPSEVAEMVAYLIGPGAAAVTAQALNVCGGLGNY
A. 0.76

Q. Note Km for the protein shown: actKR (actinorhodin type II polyketide ketoreductase) (Streptomyces coelicolor A3(2); F189A) (protein) MATQDSEVALVTGATSGIGLEIARRLGKEGLRVFVCARGEEGLRTTLKELREAGVEADGRTCDVRSVPEIEALVAAVVERYGPVDVLVNNAGRPGGGATAELADELWLDVVETNLTGVFRVTKQVLKAGGMLERGTGRIVNIASTGGKQGVVHAAPYSASKHGVVGFTKALGLELARTGITVNAVCPGAVETPMAASVREHYSDIWEVSTEEAFDRITARVPIGRYVQPSEVAEMVAYLIGPGAAAVTAQALNVCGGLGNY
A. 8.63
